test: T. cruzi intracellular proliferation inhibitors, primary screen, cell-based, beta-gal Tulahuen parasites, NIH3T3 host, luminescence (AID 624255); conditions: T. cruzi beta-gal in NIH3T3, GalScreen luminescence, 90 h; at 8.34 µM
About 4,600 (6%) of roughly 77,000 compounds were called active. Not shown: some 1% with an inconclusive outcome.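 How the source made its calls: active means mean inhibition above about 93%, with at least 55% of replicates each passing it (limit read from the data, passing the limit was not always enough); inconclusive means only one of those two conditions holds; inactive means neither condition holds.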 The full list was thinned out, with actives kept by preference.
Please state which outcome applies, choosing from 1 = active, 0 = inactive

Test call for this molecule, please: CN1C(=O)c2cc(NC(=O)Cc3cccs3)ccc2OC[C@@H]2O[C@@H](CC(=O)N[C@@H]3CCN(Cc4ccccc4)C3)CC[C@H]21 0

State the result this test recorded for CCS(=O)(=O)Nc1ccc2c(c1)C(=O)N(C)[C@H]1CC[C@H](CC(=O)N[C@@H]3CCN(Cc4ccccc4)C3)O[C@H]1CO2 . 0

Write down the call the test reported for this molecule. Item: CN1C(=O)c2cc(NC(=O)Nc3ccccc3F)ccc2OC[C@H]2O[C@H](CC(=O)NCc3ccc(-c4ccccc4)cc3)CC[C@H]21 1

Just curious, what result did CCS(=O)(=O)Nc1ccc2c(c1)C(=O)N(C)[C@@H]1CC[C@H](CC(=O)N[C@H]3CCN(Cc4ccccc4)C3)O[C@@H]1CO2 get here? 0

# lookup: test call for CN1C(=O)c2cc(NC(=O)c3cnccn3)ccc2OC[C@@H]2O[C@H](CC(=O)NC3CCC3)CC[C@@H]21 0

Fill in: this test's call for CC(C)CC#Cc1cnc2c(c1)C(=O)N([C@H](C)CO)C[C@H](C)[C@H](CN(C)CC1CCOCC1)O2 is ___ 0

Name the outcome recorded for CN1C(=O)c2cc(NC(=O)c3cnccn3)ccc2OC[C@@H]2O[C@H](CC(=O)N[C@@H]3CCN(Cc4ccccc4)C3)CC[C@@H]21 in the assay. 1

====

Exercise: state measured inhibition for each of the compounds provided.
assay: T. cruzi intracellular proliferation inhibitors, primary screen, cell-based, beta-gal Tulahuen parasites, NIH3T3 host, luminescence (AID 624255); conditions: T. cruzi beta-gal in NIH3T3, GalScreen luminescence, 90 h; at 8.34 µM; stronger effect = higher value
The campaign covered roughly 77,000 compounds. About 4,600 (6%) were called active. Inconclusive results (about 1%) are left out. The sample holds actives, similar compounds and a random draw of the others, so the mix is not that of the screen.
Respond numerically; units are % and should not be typed.

C[C@@H]1CN([C@@H](C)CO)C(=O)c2cc(-c3ccc(F)cc3)cnc2O[C@H]1CN(C)C(=O)c1ccncc1 yielded inhibition of 64.3

// inhibition lookup, compound = CO[C@@H]1CN(C)C(=O)c2cc(NC(=O)C3CC3)ccc2OC[C@@H](C)N(C(=O)NC(C)C)C[C@@H]1C , result: 72

Lookup result for Cc1cccc(-c2ccc([C@H]3[C@H](CO)N4CCCCN(S(=O)(=O)c5cn(C)cn5)C[C@@H]34)cc2)c1 ; measured inhibition: 41.5

Record summary for O=S(=O)(Cc1ccccc1)N1CCCCN2[C@@H](CO)[C@@H](c3ccc(-c4ccc(F)cc4)cc3)[C@@H]2C1 : reported inhibition = 98.2

Summary for this compound, Cc1ccccc1-c1ccc2c(c1)O[C@H](CN(C)C)[C@@H](C)CN([C@H](C)CO)S2(=O)=O : inhibition is 30

Notebook: COc1ccccc1-c1ccc2c(c1)O[C@@H](CN(C)C)[C@H](C)CN([C@H](C)CO)S2(=O)=O , inhibition read as 102

Lab book: inhibition of CCCNC(=O)C[C@@H]1CC[C@H]2[C@H](COc3ccc(NC(=O)c4ccc(Cl)cc4)cc3C(=O)N2C)O1 noted as 29.6

# inhibition of CC(C)NC(=O)Nc1ccc2c(c1)C(=O)N(C)[C@@H]1CC[C@H](CC(=O)NCC3CCCCC3)O[C@@H]1CO2 = -5.5

Measured inhibition of CCCN1C[C@H](C)[C@@H](OC)CN(C)C(=O)c2cc(NS(=O)(=O)CC)ccc2OC[C@H]1C : -88

Sample COc1ccccc1C#Cc1cnc2c(c1)C(=O)N([C@@H](C)CO)C[C@H](C)[C@@H](CN(C)C(=O)CC1CC1)O2 ; inhibition observed: 92.8

So, COc1ccccc1NC(=O)N[C@H]1CC[C@@H](CCn2cc(C3(O)CCCC3)nn2)O[C@@H]1CO ? Its inhibition was 0.23

Looking up Cc1cccc(-c2ccc([C@@H]3[C@@H](CO)N4CCCCN(S(=O)(=O)c5cccs5)C[C@H]34)cc2)c1 , I found its inhibition recorded as 118

In plain terms, Cc1ccccc1-c1ccc2c(c1)O[C@H](CN(C)C)[C@H](C)CN([C@@H](C)CO)S2(=O)=O has a documented inhibition of 15.2

# inhibition (compound: CCNC(=O)Nc1ccc2c(c1)C(=O)N(C)[C@@H]1CC[C@@H](CC(=O)NCCOC)O[C@@H]1CO2 ) is 4.1

The value of inhibition measured for the compound C[C@H](CO)N1C[C@H](C)[C@H](CN(C)CC2CC2)OCCCC[C@H](C)Oc2ccc(NC(=O)c3ccncc3)cc2C1=O turned out to be 29.6

Entry under test: COc1ccccc1-c1ccc2c(c1)O[C@H](CN(C)S(=O)(=O)c1ccc(C)cc1)[C@@H](C)CN([C@H](C)CO)S2(=O)=O . Its inhibition was 124

The reported inhibition of the compound O=C(Cc1ccccn1)N[C@H]1CC[C@@H](CC(=O)N2CCCCC2)O[C@@H]1CO was -26

inhibition in this record for CC(=O)N(C)C[C@H]1Oc2cc(-c3ccc(C)cc3)ccc2S(=O)(=O)N([C@@H](C)CO)C[C@@H]1C : 98.5

For reference, reported inhibition for CCCC#Cc1ccc([C@H]2[C@@H](CO)N3CCCCN(S(=O)(=O)CC)C[C@H]23)cc1 stands at 65.9

Just so you know, measured inhibition for C/C=C/c1ccc([C@H]2[C@@H](CO)N[C@@H]2CN(CC)C(=O)CN2CCOCC2)cc1 came out at -25.4

Reported inhibition ( Cc1ccc(S(=O)(=O)Nc2ccc3c(c2)C(=O)N([C@@H](C)CO)C[C@@H](C)[C@H](CN(C)C(=O)NC(C)C)OCCCC[C@H](C)O3)cc1 ) = 46

Item: CNC(=O)C[C@@H]1CC[C@@H]2[C@@H](COc3ccc(NC(=O)Cc4cccs4)cc3C(=O)N2C)O1 | inhibition: -40.4

// inhibition lookup, compound = O=C(CCN1CCCCC1)NCC[C@H]1CC[C@@H](NC(=O)C2CCOCC2)[C@H](CO)O1 , result: 26.2

Input CC(=O)N1CC[C@@H]2[C@@H](CO)N(C)c3ccc(-c4ccc(C#N)cc4)cc3[C@@H]21 . Output inhibition: 52.3

Summary for this compound, O=S(=O)(c1ccccc1)N1CCCCN2[C@H](C1)[C@H](c1ccc(-c3ccccc3)cc1)[C@@H]2CO : inhibition is 94.7

In plain terms, CC(C)c1cn(CC[C@@H]2CC[C@@H](NC(=O)C3CC3)[C@H](CO)O2)nn1 has a documented inhibition of 10.2

The recorded inhibition for entry CO[C@@H]1CC[C@@H]2CCOc3ccc(C#N)cc3C(=O)N(C)C[C@@H](OC)[C@@H](C)C(=O)N(C)C[C@H]1O2 equals 26.1

So for CN1CCCCN2[C@H](CO)[C@H](c3ccc(-c4ccc(F)cc4)cc3)[C@@H]2C1 , the logged inhibition turned out to be 14.5

GET /value?item= COc1cccc(S(=O)(=O)N[C@@H]2CC[C@@H](CCNC(=O)Cc3ccncc3)O[C@H]2CO)c1 &field=inhibition returns 80.6

For CS(=O)(=O)Nc1ccc2c(c1)[C@H]1C[C@H](CC(=O)NCc3ccc(Oc4ccccc4)cc3)O[C@H](CO)[C@H]1O2 the compound record lists inhibition as 3.92

So, CC=Cc1ccc2n(c1=O)C[C@H]1[C@H](CO)[C@@H](C(=O)NCc3ccncc3)N(Cc3cncnc3)[C@@H]21 (mixture of isomers) ? Its inhibition was 37.5

In plain terms, COCC(=O)Nc1ccc2c(c1)OC[C@@H](C)N(Cc1cocn1)C[C@@H](C)[C@@H](OC)CN(C)C2=O has a documented inhibition of -2.18
